The values you see were collected from ChEMBL document CHEMBL5518181.

# ASSAY SUMMARY: Cytotoxicity against human HepG2 cells incubated for 40 hrs by celltiter-glo luminescent cell viability assay
# Type: toxicity, cell-based
Kindly supply the reported IC50 at 40 h values for the records listed here.

COMPOUND SMILES	READOUT NAME	REPORTED VALUE
CC[C@H](C)[C@@H](NC(=O)[C@@H](NC(=O)[C@H](CCC(=O)O)NC(=O)[C@H](Cc1ccccc1)NC(=O)[C@@H](CCN)NC(=O)[C@H](CCN)NC(=O)[C@H](C)NC(=O)[C@@H](Cc1c[nH]c2ccccc12)NC(=O)[C@@H](CO)NC(=O)CNC(=O)[C@@H](CCN)NC(=O)[C@H](NC(=O)[C@H](C)N)C(C)C)C(C)C)C(=O)N[C@@H](C)C(=O)O	IC50 at 40 h	> 170 µg/mL

Please turn your attention to the following entry.
Query :: Look up IC50 at 40 h for this compound: CC[C@H](C)[C@@H](NC(=O)[C@@H](NC(=O)[C@H](CCC(=O)O)NC(=O)[C@H](C)NC(=O)[C@@H](CCN)NC(=O)[C@H](CCN)NC(=O)[C@H](CO)NC(=O)[C@@H](Cc1c[nH]c2ccccc12)NC(=O)[C@@H](CO)NC(=O)CNC(=O)[C@@H](CCN)NC(=O)[C@H](NC(=O)[C@H](C)N)C(C)C)C(C)C)C(=O)N[C@@H](C)C(=O)O
Result :: > 170 µg/mL
